# Assay system: CB1 cannabinoid receptor (Rattus norvegicus)
# Construct: membranes were prepared from rat forebrain membranes; from tissue; host or cells: rat forebrain membranes
# Sequence (P20272 whole entry): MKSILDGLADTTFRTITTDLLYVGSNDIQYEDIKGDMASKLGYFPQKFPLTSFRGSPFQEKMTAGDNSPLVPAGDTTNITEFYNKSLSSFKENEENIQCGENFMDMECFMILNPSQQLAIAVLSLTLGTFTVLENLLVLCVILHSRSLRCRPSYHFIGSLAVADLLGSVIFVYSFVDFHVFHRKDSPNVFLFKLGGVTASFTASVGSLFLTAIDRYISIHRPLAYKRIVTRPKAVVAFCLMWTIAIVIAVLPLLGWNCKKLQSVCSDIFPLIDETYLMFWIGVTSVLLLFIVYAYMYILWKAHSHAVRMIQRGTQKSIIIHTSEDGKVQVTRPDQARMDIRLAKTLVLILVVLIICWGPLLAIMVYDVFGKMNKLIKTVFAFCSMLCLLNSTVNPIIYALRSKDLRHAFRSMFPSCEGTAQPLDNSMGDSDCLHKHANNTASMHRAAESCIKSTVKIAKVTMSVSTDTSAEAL
# Assay summary: biochemical
# Type: binding
# Measurement setup: Receptor Affinities Ki (nM) CB1, Table 9; rat forebrain membranes
// Ki lookup, one value per entry
Write the number in nM without appending the unit.

| Compound | Property | Measured number |
| --- | --- | --- |
| Cc1c(C(=O)N(C)C2CCCCC2)nc(-c2ccc(Cl)cc2Cl)n1-c1ccc(CCCO)cc1 [Compound 4-7] | Ki | 100 |
| O=C(NN1CCCCC1)c1nn(-c2ccc(Cl)cc2Cl)c(-c2ccc(CCCCO)cc2)c1CO [Compound 4-3] | Ki | 31 |
| Cc1c(C(=O)NN2CCCCC2)nn(-c2ccc(Cl)cc2Cl)c1-c1ccc(CCC#N)cc1 [Compound 4-4] | Ki | 13 |
| Cc1c(C(=O)NN2CCCCC2)nn(-c2ccc(Cl)cc2Cl)c1-c1ccc(CCCO)cc1 [Compound 4-1] | Ki | 26 |
| Cc1c(C(=O)NN2CCCCC2)nn(-c2ccc(Cl)cc2Cl)c1-c1ccc(CCCCN=[N+]=[N-])cc1 [Compound 4-5] | Ki | 3 |
| Cc1c(C(=O)NN2CCCCC2)nn(-c2ccc(Cl)cc2Cl)c1-c1ccc(CCCCO)cc1 [Compound 4-2] | Ki | 2 |

Query :: What value of measured Ki is listed for O=C(NN1CCCCC1)c1nn(-c2ccc(Cl)cc2Cl)c(-c2ccc(CCCO)cc2)c1CO [Compound 4-6] ?
Result :: 21

* * *

// log10 of Ki lookup, one value per entry
# Assay system: CB2 cannabinoid receptor (Mus musculus, UniProt P47936)
# Sequence (P47936 whole entry): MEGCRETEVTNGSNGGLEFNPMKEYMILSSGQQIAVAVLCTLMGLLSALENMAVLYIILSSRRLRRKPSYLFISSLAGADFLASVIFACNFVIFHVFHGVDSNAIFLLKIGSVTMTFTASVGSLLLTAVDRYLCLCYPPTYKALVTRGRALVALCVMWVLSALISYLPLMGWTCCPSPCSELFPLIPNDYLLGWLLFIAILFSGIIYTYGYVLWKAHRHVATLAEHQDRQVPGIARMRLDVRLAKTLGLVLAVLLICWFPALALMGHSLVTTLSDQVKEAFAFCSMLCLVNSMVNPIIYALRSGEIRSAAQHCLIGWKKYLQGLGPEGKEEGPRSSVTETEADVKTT
# Assay summary: biochemical
# Format: binding
# Measurement setup: Table 10; mouse spleen membranes; read-out: Receptor Affinities Ki (nM) CB2
Hi team, quick reminder: these entries are log10 of Ki (nM).

| Compound smiles | Assay system | log10 of Ki |
| --- | --- | --- |
| Cc1c(C(=O)NN2CCCCC2)nn(-c2ccc(Cl)cc2Cl)c1-c1ccc(C#CC2CC2)cc1 | CB2 cannabinoid receptor (Mus musculus, UniProt P47936) | 1.30 |
| Cc1c(C(=O)NN2CCCCC2)nn(-c2ccc(Cl)cc2Cl)c1-c1ccc(C#Cc2cccnc2)cc1 | CB2 cannabinoid receptor (Mus musculus, UniProt P47936) | 1.73 |
| Cc1c(C(=O)NN2CCCCC2)nn(-c2ccc(Cl)cc2Cl)c1-c1ccc(C#CC(C)(C)C)cc1 | CB2 cannabinoid receptor (Mus musculus, UniProt P47936) | 1.40 |
| Cc1c(C(=O)NN2CCCCC2)nn(-c2ccc(Cl)cc2Cl)c1-c1ccc(C#CCNC(=O)OC(C)(C)C)cc1 | CB2 cannabinoid receptor (Mus musculus, UniProt P47936) | 1.94 |
| Cc1c(C(=O)NN2CCCCC2)nn(-c2ccc(Cl)cc2Cl)c1-c1ccc(C#Cc2ccncc2)cc1 | CB2 cannabinoid receptor (Mus musculus, UniProt P47936) | 2.62 |
| Cc1c(C(=O)NN2CCCCC2)nn(-c2ccc(Cl)cc2Cl)c1-c1ccc(C#CCCCN)cc1 | CB2 cannabinoid receptor (Mus musculus, UniProt P47936) | 2.98 |

Query :: What value of measured log10 of Ki is listed for Cc1c(C(=O)NN2CCCCC2)nn(-c2ccc(Cl)cc2Cl)c1-c1ccc(C#CCN)cc1 ?
Result :: 1.60

Query :: What value of measured log10 of Ki is listed for Cc1c(C(=O)NN2CCCCC2)nn(-c2ccc(Cl)cc2Cl)c1-c1ccc(C#CCN(C)C)cc1 ?
Result :: 1.88

Query :: What value of measured log10 of Ki is listed for Cc1c(C(=O)NN2CCCCC2)nn(-c2ccc(Cl)cc2Cl)c1-c1ccc(C#CC2(O)CCCCC2)cc1 ?
Result :: 1.83
